// data source = patent US20240342292A1

- STUDY SYSTEM: L858R/T790M/C797S EGFR (Homo sapiens, UniProt P00533, C797S/L858R/T790M)
- Construct: expressed in transfected cells; host or cells: H1975 clone #25 (lentiviral over-expression, endogenous EGFR knocked out by sgRNA)
- Sequence (P00533 25-1210 T790M/C797S/L858R): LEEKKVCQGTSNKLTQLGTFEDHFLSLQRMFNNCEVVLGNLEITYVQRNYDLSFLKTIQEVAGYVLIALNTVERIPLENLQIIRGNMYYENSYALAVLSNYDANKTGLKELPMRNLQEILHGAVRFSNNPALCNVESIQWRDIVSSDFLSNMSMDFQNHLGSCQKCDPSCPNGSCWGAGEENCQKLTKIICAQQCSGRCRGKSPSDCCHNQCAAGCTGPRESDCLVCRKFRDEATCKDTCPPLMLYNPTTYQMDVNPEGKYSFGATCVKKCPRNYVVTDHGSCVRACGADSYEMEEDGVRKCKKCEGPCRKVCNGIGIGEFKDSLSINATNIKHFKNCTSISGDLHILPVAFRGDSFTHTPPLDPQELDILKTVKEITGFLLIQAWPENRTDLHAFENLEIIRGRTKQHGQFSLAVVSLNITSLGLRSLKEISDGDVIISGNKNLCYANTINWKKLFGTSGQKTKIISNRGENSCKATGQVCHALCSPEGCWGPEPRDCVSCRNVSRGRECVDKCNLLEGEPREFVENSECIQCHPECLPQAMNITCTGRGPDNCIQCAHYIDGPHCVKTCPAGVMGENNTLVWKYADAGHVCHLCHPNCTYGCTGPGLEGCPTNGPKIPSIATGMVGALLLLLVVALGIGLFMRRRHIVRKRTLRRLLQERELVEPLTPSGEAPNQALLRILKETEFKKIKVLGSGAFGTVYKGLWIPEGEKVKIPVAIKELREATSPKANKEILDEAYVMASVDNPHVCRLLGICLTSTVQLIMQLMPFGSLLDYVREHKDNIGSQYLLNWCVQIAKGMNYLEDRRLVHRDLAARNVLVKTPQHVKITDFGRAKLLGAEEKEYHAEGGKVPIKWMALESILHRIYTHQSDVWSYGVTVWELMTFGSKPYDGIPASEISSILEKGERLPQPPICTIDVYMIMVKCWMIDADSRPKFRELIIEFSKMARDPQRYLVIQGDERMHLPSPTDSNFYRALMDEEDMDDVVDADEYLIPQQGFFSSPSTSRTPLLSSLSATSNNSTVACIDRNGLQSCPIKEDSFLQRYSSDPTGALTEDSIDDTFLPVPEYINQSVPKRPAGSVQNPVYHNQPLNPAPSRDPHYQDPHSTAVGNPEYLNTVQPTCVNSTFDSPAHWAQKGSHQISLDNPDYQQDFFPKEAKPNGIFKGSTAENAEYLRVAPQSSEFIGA
- EXPERIMENTAL DETAILS: EGFR degradation HTRF assay in H1975-clone #25 (LTC) cells
- Format: cell-based
- CONDITION CONTEXT: H1975 # 25-LTC (L858R/T790M/C797S), 16h treatment, HTRF
DC50 strictly under 0.6 nM means True; at 0.6 nM or over means False.

Please check: DC50 for "Cc1cc2cc(n1)-c1cnn(C)c1OCCC[C@@H](C)CN1/C(=N/C2=O)Nc2ccc(C(=O)N[C@@H]3C[C@H]4CC[C@@H](C3)N4CCc3cc(F)c([C@H]4CCC(=O)NC4=O)c(F)c3)cc21" , strictly under 0.6 nM or not?
True

And then "COC[C@@H]1CN(C2CCN(c3cc(F)c([C@H]4CCC(=O)NC4=O)c(F)c3)CC2)CCN1c1ccc2c(c1)N1C[C@H](C)CCCOc3c(cnn3C)-c3cc(cc(C)n3)C(=O)/N=C/1N2" , what is it?
False

And then "Cc1cc2cc(n1)-c1cnn(C)c1OCCC[C@@H](C)CN1/C(=N/C2=O)Nc2ccc(CN3CCN(C(=O)[C@@H]4CCN(c5cc(F)c([C@H]6CCC(=O)NC6=O)c(F)c5)C4)C[C@H]3CO)cc21" , what is it?
False

And then "Cc1cc2cc(n1)-c1cnn(C)c1OCCC[C@@H](C)CN1/C(=N/C2=O)Nc2ccc(C(=O)NC3CCN(CCc4cc(F)c([C@H]5CCC(=O)NC5=O)c(F)c4)CC3)cc21" , what is it?
True

And then "Cc1cc2cc(n1)-c1cnn(C)c1OCCC[C@@H](C)CN1/C(=N/C2=O)Nc2ccc(N3CCC(N4CC(Nc5cc(F)c([C@H]6CCC(=O)NC6=O)c(F)c5)C4)CC3)cc21" , what is it?
False

And then Cc1cc2cc(n1)-c1cnn(C)c1OCC[C@H]1C[C@@H]1CN1/C(=N/C2=O)Nc2ccc(N3CCN(C4CCN(c5ccc(C6CCC(=O)NC6=O)nc5)CC4)CC3)cc21 (stereo partly shown) , what is it?
False

----------
Each record here notes measured Dmax.
- STUDY SYSTEM: L858R/T790M/C797S EGFR (Homo sapiens, UniProt P00533, C797S/L858R/T790M)
- Construct: expressed in transfected cells; host or cells: H1975 clone #25 (lentiviral over-expression, endogenous EGFR knocked out by sgRNA)
- EXPERIMENTAL DETAILS: EGFR degradation HTRF assay in H1975-clone #25 (LTC) cells
- Assay type: cell-based
- CONDITION CONTEXT: NCI-H1975, H1975 # 25-LTC (L858R/T790M/C797S), 16h treatment, maximum percentage of degradation
Hi! Could you send only the number? It should be in %, unit omitted.

Sample answers from the record:
COMPOUND | Dmax (%)
Cc1cc2cc(n1)-c1cnn(C)c1OCCC[C@@H](C)CN1/C(=N/C2=O)Nc2ccc(C(=O)N3CCC(NCCc4cc(F)c([C@H]5CCC(=O)NC5=O)c(F)c4)CC3)cc21 [Example 300] | 88.2
Cc1cc2cc(n1)-c1cnn(C)c1OCCC[C@@H](C)CN1/C(=N/C2=O)Nc2ccc(N(C)C3CCN(C4CCN(c5cc(F)c([C@H]6CCC(=O)NC6=O)c(F)c5)CC4)CC3)cc21 [Example 214] | 79.4

Now consider a different compound.
Data request, read-out Dmax, for Cc1cc2cc(n1)-c1cnn(C)c1OCCC[C@@H](C)CN1/C(=N/C2=O)Nc2ccc(C(=O)N3CCN(C4CCN(c5cc(F)c([C@H]6CCC(=O)NC6=O)c(F)c5)CC4)CC3)cc21 [Example 303]
80.9

----------
Each record here notes measured DC50.
- STUDY SYSTEM: L858R/T790M/C797S EGFR (Homo sapiens, UniProt P00533, C797S/L858R/T790M)
- Construct: expressed in transfected cells; host or cells: H1975 clone #25 (lentiviral over-expression, endogenous EGFR knocked out by sgRNA)
- EXPERIMENTAL DETAILS: EGFR degradation HTRF assay in H1975-clone #25 (LTC) cells
- Format: cell-based
- CONDITION CONTEXT: H1975 # 25-LTC (L858R/T790M/C797S), 16h treatment, HTRF

COMPOUND | DC50
Cc1cc2cc(n1)-c1cnn(C)c1OCCC[C@@H](C)CN1/C(=N/C2=O)Nc2ccc(CCN3CCN(c4cc(F)c([C@H]5CCC(=O)NC5=O)c(F)c4)CC3)cc21 [Example 446] | 0.696 nM
Cc1cc2cc(n1)-c1cnn(C)c1OCCC[C@@H](C)CN1/C(=N/C2=O)Nc2ccc(CN3CCN(C(=O)[C@@H]4CCN(c5cc(F)c([C@H]6CCC(=O)NC6=O)c(F)c5)C4)CC3=O)cc21 [Example 200] | 1.22 nM
Cc1cc2cc(n1)-c1cnn(C)c1OCCC[C@@H](C)CN1/C(=N/C2=O)Nc2ccc(N3CC(NC4CCN(c5cc(F)c([C@H]6CCC(=O)NC6=O)c(F)c5)CC4)C3)cc21 [Example 454] | 1.08 nM
Cc1cc2cc(n1)-c1cnn(C)c1OCCC[C@@H](C)CN1/C(=N/C2=O)Nc2ccc(N3CCN(C4CCN(c5cc(F)c([C@H]6CCC(=O)NC6=O)c(F)c5)CC4)C[C@H]3C)cc21 [Example 384] | 1.67 nM

Now consider a different compound.
Data request, read-out DC50, for Cc1cc2cc(n1)-c1cnn(C)c1OCCC[C@@H](C)CN1/C(=N/C2=O)Nc2ccc(CN3CCC(N4CCN(C(=O)[C@H]5CCN(c6ccc7c(c6)C(=O)N(C6CCC(=O)NC6=O)C7=O)C5)CC4)CC3)cc21 (some centres unmarked) [Example 216]
9.55 nM

----------
- STUDY SYSTEM: L858R/T790M/C797S EGFR (Homo sapiens, UniProt P00533, C797S/L858R/T790M)
- Construct: expressed in transfected cells; host or cells: H1975 clone #25 (lentiviral over-expression, endogenous EGFR knocked out by sgRNA)
- EXPERIMENTAL DETAILS: EGFR degradation HTRF assay in H1975-clone #25 (LTC) cells
- Type: cell-based
- CONDITION CONTEXT: NCI-H1975, H1975 # 25-LTC (L858R/T790M/C797S), 16h treatment, maximum percentage of degradation
Each record here notes measured Dmax.
Hi! Could you send only the number? It should be in %, unit omitted.

SAMPLE SMILES | STUDY SYSTEM | VALUE
Cc1cc2cc(n1)-c1cnn(C)c1OCCC[C@@H](C)CN1/C(=N/C2=O)Nc2ccc(N3CCN(C4CCN(c5cc(F)c([C@H]6CCC(=O)NC6=O)c(F)c5)CC4)C[C@@H]3C)cc21 | L858R/T790M/C797S EGFR (Homo sapiens, UniProt P00533, C797S/L858R/T790M) | 88.8
Cc1cc2cc(n1)-c1cnn(C)c1OCCC[C@@H](C)CN1/C(=N/C2=O)Nc2ccc(CN3CCC(N4CCN(C5CN(c6cc(F)c([C@H]7CCC(=O)NC7=O)c(F)c6)C5)CC4)CC3)cc21 | L858R/T790M/C797S EGFR (Homo sapiens, UniProt P00533, C797S/L858R/T790M) | 87.4
Cc1cc2cc(n1)-c1cnn(C)c1OCCC[C@@H](C)CN1/C(=N/C2=O)Nc2ccc(N3CCN(CCc4cc(F)c([C@H]5CCC(=O)NC5=O)c(F)c4)CC3)cc21 | L858R/T790M/C797S EGFR (Homo sapiens, UniProt P00533, C797S/L858R/T790M) | 86.2
Cc1cc2cc(n1)-c1cnn(C)c1OCCC[C@@H](C)CN1/C(=N/C2=O)Nc2ccc(N3CCN(CC4CN(c5cc(F)c([C@H]6CCC(=O)NC6=O)c(F)c5)C4)CC3)cc21 | L858R/T790M/C797S EGFR (Homo sapiens, UniProt P00533, C797S/L858R/T790M) | 88.2

Data request, read-out Dmax, for "Cc1cc2cc(n1)-c1cnn(C)c1OCCC[C@H](C)CN1/C(=N/C2=O)Nc2c(C)cc(CN3CCN(C(=O)C4CN(c5cc(F)c([C@H]6CCC(=O)NC6=O)c(F)c5)C4)CC3)cc21"
79.4

----------
- STUDY SYSTEM: L858R/T790M/C797S EGFR (Homo sapiens, UniProt P00533, C797S/L858R/T790M)
- Construct: expressed in transfected cells; host or cells: H1975 clone #25 (lentiviral over-expression, endogenous EGFR knocked out by sgRNA)
- EXPERIMENTAL DETAILS: EGFR degradation HTRF assay in H1975-clone #25 (LTC) cells
- Type: cell-based
- CONDITION CONTEXT: NCI-H1975, H1975 # 25-LTC (L858R/T790M/C797S), 16h treatment, maximum percentage of degradation
PROPERTY: Dmax (%)
Hi! Could you send only the number? It should be in %, unit omitted.

Data request, read-out Dmax, for "Cc1cc2cc(n1)-c1cnn(C)c1OCCC[C@@H](C)CN1/C(=N/C2=O)Nc2ccc(CN3CCN(C(=O)[C@@H]4CCN(c5cc(F)c([C@H]6CCC(=O)NC6=O)c(F)c5)C4)C[C@@H]3CO)cc21"
85.5

And then "Cc1cc2cc(n1)-c1cnn(C)c1OCCC[C@@H](C)CN1/C(=N/C2=O)Nc2ccc(C(=O)N3CC(NCCc4cc(F)c([C@H]5CCC(=O)NC5=O)c(F)c4)C3)cc21" , what is it?
90.6

And then "Cc1cc2cc(n1)-c1cnn(C)c1OCCC[C@@H](C)CN1/C(=N/C2=O)Nc2ccc(CN(C)[C@H]3CCCN(C(=O)[C@@H]4CCN(c5cc(F)c([C@H]6CCC(=O)NC6=O)c(F)c5)C4)C3)cc21" , what is it?
83.4
